tested on: A/teal/Egypt/MB.D125OP/2015 (H7N3, 125OP); experiment: organism not typed; assay type: cell-based, avian influenza H7N3 virus; conditions: MDCK, 72 h, read-out: IC50 125OP
Reported pIC50 values for the following compounds.
# log scale: pIC50 equals minus log10 of the concentration in mol/L

Qu. Reported pIC50 for CCOC(=O)C1=C[C@@H](OC(CC)CC)[C@H](NC(C)=O)[C@@H](N)C1 : what is it?
Ans. 3.39

Qu. Lookup CC(=O)N[C@H]1[C@H]([C@H](O)[C@H](O)CO)OC(C(=O)O)=C[C@@H]1N=C(N)N
Ans. 4.77

Qu. Lookup CCC(CC)COC(=O)[C@H](C)N[P@](=O)(OC[C@H]1O[C@@](C#N)(c2ccc3c(N)ncnn23)[C@H](O)[C@@H]1O)Oc1ccccc1
Ans. 4.35

Qu. Lookup NC(=O)c1nc(F)c[nH]c1=O
Ans. 5.41

Others:
Qu. Reported pIC50 for NC12CC3CC(CC(C3)C1)C2 : what is it?
Ans. 4.77
